Exercise: state measured pKd for each of the binders provided.
target: IL16_4, Q14005; experiment: holdup assay; set-up: key: below the threshold = too weak to quantify, mostly under pKd 3.1 to 4; settings: plain residues with an end cap or a label only (N-terminal biotin on a linker: ado-ado)
Sequence (Q14005 1229-1329): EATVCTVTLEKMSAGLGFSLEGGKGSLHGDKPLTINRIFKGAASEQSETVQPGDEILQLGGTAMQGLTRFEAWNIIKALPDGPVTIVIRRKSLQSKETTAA
Numbers only.

>  <Binder>
TNSKQGETTV [FZD1, Q9UP38]

>  <Assay value>
3.68

$$$$
>  <Binder>
IGHEDLETAV [DGKI, O75912]

>  <Assay value>
3.52

$$$$
>  <Binder>
NSTHNLKDYV [CLDN20, P56880]

>  <Assay value>
3.65

$$$$

Here is another binder to look at.
State its pKd for this binder: GVHSNDHSVV [LPAR1, Q92633]
3.76
